Measured endpoint: logP
// no unit string in output, number only

>>> value("CSc1n[nH]c(C2CCCCC2C(=O)Nc2ccccc2Cl)n1 (stereo not given)")
3.84

Req: State its logP for this compound: CCC(C)NC(=O)C1C2C=CC(C2)C1c1nc(SC)n[nH]1 (stereo not given)
Resp: 2.57

Req: Please indicate logP recorded for CSc1n[nH]c(C2CCCCC2C(=O)NCCc2ccccc2)n1 (stereo not given)
Resp: 3.51

Req: Give the value of logP reported for the following: CCCCNC(=O)C1C2C=CC(C2)C1c1nc(SC)n[nH]1 (stereo not given)
Resp: 2.55

Req: Please give the documented logP of CSc1n[nH]c(C2C3C=CC(C3)C2C(=O)NCCc2ccccc2)n1 (stereo not given)
Resp: 3.12

Req: Look up and report measured logP for this entry: CSc1n[nH]c(C2CCCCC2C(=O)NC2CCCCC2)n1 (stereo not given)
Resp: 3.48

Req: Provide one value: measured logP of CSc1n[nH]c(C2C3C=CC(C3)C2C(=O)Nc2ccccc2)n1 (stereo not given)
Resp: 2.91

Req: Determine its reported logP: CSc1n[nH]c(C2CCCCC2C(=O)NCc2ccccc2)n1 (stereo not given)
Resp: 3.17

Req: For the compound CSc1n[nH]c(C2C3C=CC(C3)C2C(=O)Nc2ccccc2Cl)n1 (stereo not given) , give its measured logP value.
Resp: 3.44

Req: Return logP (reported value) for this compound: COc1ccc(NC(=O)C2CCCCC2c2nc(SC)n[nH]2)cc1 (stereo not given)
Resp: 3.19
